Attribute: pEC50
System: Dengue 4 virus MY01-22713
assay protocol: High-content imaging cell-based flavivirus immunodetection (HCl-CFI) assay, Dengue 4
test settings: Dengue virus, A549, 48 h, read-out: Dengue 4 virus MY01-22713 in A549 using HCl [Inhibitor/IC50] Qualified AC50, A549 cells, 48 h, viral E protein expression
pEC50: −log10 of the molar value.
recorded metric: pEC50

[[record]]
molecule = "Cc1cccc(CN2CCc3c(sc(NC(=O)Cc4ccc(S(N)(=O)=O)cc4)c3C#N)C2)c1F [Example 115]"
observed_value = "> 7.00"

[[record]]
molecule = "COc1cccc(CC(=O)Nc2sc3c(c2C#N)CN(Cc2cccc(F)c2)CC3)c1Cl [Example 41]"
observed_value = "6.00 to 7.00"

[[record]]
molecule = "CC1Cc2sc(NC(=O)Cc3ccc(S(N)(=O)=O)cc3)c(C#N)c2CN1CCc1ccccc1 (stereo not shown) [Example 67]"
observed_value = "> 7.00"

[[record]]
molecule = "N#Cc1c(NC(=O)Cc2ccc(S(N)(=O)=O)cc2)sc2c1CCN(Cc1cc(Cl)ccc1Cl)C2 [Example 109]"
observed_value = "6.00 to 7.00"

[[record]]
molecule = "CC1Cc2sc(NC(=O)Cc3ccc(S(=O)(=O)NCC4CCCCC4)cc3)c(C#N)c2CN1CC1CCCCC1 (stereo not shown) [Example 63]"
observed_value = "6.00 to 7.00"

[[record]]
molecule = "CC1(C)CS(=O)(=O)c2ccc(CC(=O)Nc3sc4c(c3C#N)CN(CC3CCCCC3)C(C)(C)C4)cc21 [Example 72]"
observed_value = "> 7.00"

[[record]]
molecule = "CC1Cc2sc(NC(=O)Cc3ccc(S(N)(=O)=O)cc3)c(C#N)c2CN1Cc1cc(F)cc(F)c1 (stereo not shown) [Example 85]"
observed_value = "> 7.00"

[[record]]
molecule = "N#Cc1c(NC(=O)Cc2ccc(S(=O)(=O)C(F)F)cc2)sc2c1CN(CC1CCCCC1)CC2 [Example 11]"
observed_value = "> 7.00"

[[record]]
molecule = "N#Cc1c(NC(=O)Cc2ccc3c(c2)CCS3(=O)=O)sc2c1CN(CC1CCCCC1)CC2 [Example 18]"
observed_value = "> 7.00"

[[record]]
molecule = "CC1Cc2sc(NC(=O)Cc3ccc(S(N)(=O)=O)cc3)c(C#N)c2CN1CCC1CCCCC1 (stereo not shown) [Example 68]"
observed_value = "> 7.00"

[[record]]
molecule = "CC1Cc2sc(NC(=O)Cc3ccc(S(N)(=O)=O)cc3)c(C#N)c2CN1Cc1cccc(F)c1 (stereo not shown) [Example 53]"
observed_value = "> 7.00"

[[record]]
molecule = "COc1cc(CC(=O)Nc2sc3c(c2C#N)CN(Cc2cccc(F)c2)CC3)ccc1S(N)(=O)=O [Example 22]"
observed_value = "> 7.00"

[[record]]
molecule = "CCOc1cc(CC(=O)Nc2sc3c(c2C#N)CN(CC2CC(F)(F)C2)C(C)(C)C3)ccc1S(N)(=O)=O [Example 78]"
observed_value = "> 7.00"

[[record]]
molecule = "CNS(=O)(=O)c1ccccc1CC(=O)Nc1sc2c(c1C#N)CN(Cc1cccc(F)c1)CC2 [Example 28]"
observed_value = "> 7.00"

[[record]]
molecule = "CC(O)(c1ccc(CC(=O)Nc2sc3c(c2C#N)CN(CC2CCCCC2)CC3)cc1)C(F)(F)F (stereo not shown) [Example 8]"
observed_value = "6.00 to 7.00"

[[record]]
molecule = "N#Cc1c(NC(=O)Cc2ccc(CS(N)(=O)=O)cc2)sc2c1CN(CC1CCCCC1)CC2 [Example 17]"
observed_value = "> 7.00"


Measured values drawn from patent US12012417B2 for this set.
